- target: Glutamate receptor ionotropic AMPA (Homo sapiens, UniProt P42261+P42262+P42263+P48058)
- assay_summary: Inhibition of Ionotropic glutamate receptor AMPA binding to human hippocampal homogenates at concentration of 5-7 uM
- Type: tissue-based, Hippocampus
pIC50: −log10 of the molar value.
property_measured: pIC50

[a] Oc1[nH]c(-c2ccncc2)nc2nnnc1-2
[b] O=c1[nH]c2cc([N+](=O)[O-])c([N+](=O)[O-])cc2[nH]c1=O
Record comparison, field pIC50: mark the lower of a and b . Answer with the label corresponding to your selection.
a

###

- target: Glutamate receptor ionotropic AMPA (Homo sapiens, UniProt P42261+P42262+P42263+P48058)
- assay_summary: Inhibition of Ionotropic glutamate receptor AMPA binding to human hippocampal homogenates
- Type: tissue-based, Hippocampus
property_measured: IC50 (nM)

structure: Oc1nc(-c2ccncc2)nc2c1ncn2C1CCCC1
target: Glutamate receptor ionotropic AMPA (Homo sapiens, UniProt P42261+P42262+P42263+P48058)
numeric_value: 2100

structure: Oc1[nH]c(-c2ccncc2)nc2ncnc1-2
target: Glutamate receptor ionotropic AMPA (Homo sapiens, UniProt P42261+P42262+P42263+P48058)
numeric_value: 1900
